- Tested on: RS11846 human lymphoma cell line
- Assay protocol: Cell viability, ATP-LITE assay
- Format: cell-based
- Experimental setup: 72 h, read-out: RS11846 EC50 (ATP-LITE assay)
pEC50: −log10 of the molar value.
compounds and their reported pEC50
Observation type: pEC50

Cc1cc2c(C(C)C)c(O)c(O)c(C=O)c2c(O)c1-c1c(C)cc2c(C(C)C)c(O)c(O)c(C=O)c2c1O [Gossypol]	5.66
Cc1cc2c(C(C)C)c(O)c(O)cc2c(O)c1-c1c(C)cc2c(C(C)C)c(O)c(O)cc2c1O [Apogossypol]	5.30
